Record form. Attribute: Top (MFI). Fill in for each entry.
# Target under test: T1, human SLC34A2 (human, UniProt O95436 1-690)
# T1 construct: whole, on cells; also called human solute carrier 34 A2; NaPi2b
# T1 sequence (looked up): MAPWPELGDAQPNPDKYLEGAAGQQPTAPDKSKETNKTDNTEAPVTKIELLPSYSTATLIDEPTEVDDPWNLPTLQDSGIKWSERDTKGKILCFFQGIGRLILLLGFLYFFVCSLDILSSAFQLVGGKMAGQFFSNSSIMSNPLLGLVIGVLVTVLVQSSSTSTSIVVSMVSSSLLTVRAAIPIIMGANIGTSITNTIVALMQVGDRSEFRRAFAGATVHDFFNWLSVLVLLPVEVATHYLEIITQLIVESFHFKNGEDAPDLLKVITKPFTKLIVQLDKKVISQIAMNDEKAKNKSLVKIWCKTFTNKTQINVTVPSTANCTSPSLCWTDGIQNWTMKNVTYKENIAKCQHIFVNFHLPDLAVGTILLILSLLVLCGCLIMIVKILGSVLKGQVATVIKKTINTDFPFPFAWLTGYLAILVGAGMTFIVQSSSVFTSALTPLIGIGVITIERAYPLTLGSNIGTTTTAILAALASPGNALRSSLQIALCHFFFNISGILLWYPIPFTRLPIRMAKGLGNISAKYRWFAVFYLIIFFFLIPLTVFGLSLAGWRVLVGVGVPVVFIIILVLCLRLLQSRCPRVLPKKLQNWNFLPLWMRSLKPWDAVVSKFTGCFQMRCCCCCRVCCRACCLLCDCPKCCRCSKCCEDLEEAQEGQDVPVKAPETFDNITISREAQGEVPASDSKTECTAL
# Protocol notes: FACS, OVCAR3 cells
One number for each entry, in MFI.

Take a look at these entries with their results.
30H9B8F9.p1.z10 hIgG1 (antibody, V domains shown, humanized hIgG1) VH: QVQLVQSGAEVVKPGASVKVSCKTSGYTFTTNNMHWVRQAPGQGLEWIGAIYPGSGATAYNQKFKGRVTLTADKSTSTAYMELSSLRSEATAVYYCARGMYGHGAMDYWGQGTLVTVSS VL: DIQLTQSPSFLSASVGDRVTITCKASQDVGTAVAWYQQKPGKSPKLLIYWATTRHSGVPDRFSGSGSGTEFTFTISSLQPEDFATYFCQQYSSNPLTFGQGTKLEIK	30700
62G10E4G8.p3.z8 hIgG1 (antibody, V domains shown, humanized hIgG1) VH: QVQLVQSGAEVKKPGASVKVSCKASGYTFPSYITHWVRQAPGQGLEWIGAIYPGNADTSYIQKFKGRVTMTADKSTSTVYMELSSLRSEDTAVYYCARGTYGTSAWFTYWGQGTLVTVSS VL: EIVLTQSPATLSASPGERATLSCRARQNIGNNLYWYQQKPGQSPRLLIKYASQSISGIPSRFSGSGSGTDFTLTISSVQSEDFAVYFCQQSFSWPLTFGAGTKLEIK	30000
xi30H9B8F9 hIgG1 (antibody, V domains shown, chimeric, hIgG1) VH: QVQLQQPGAELVKPGASVKMSCKTSGYTFTTNNMHWVKQTPGQGLEWIGAIYPGNGATAYNQKFKGKATLTADKSSSTAYMQLSSLTSEASAVYYCARGMYGHGAMDYWGQGTSVIVSS VL: DIVMTQSHKFMSRSVGDRVRITCKASQDVGTAVAWYQQKPGQSPKLLIYWATTRHSGVPDRFTGSGSGTDFIFTISNVQSEDLADYFCQQYSSNPLTFGAGTKLELK	29300

Data request: So what does the record say about Top (MFI) for 62G10E4G8.p3.z2 hIgG1 (antibody, V domains shown, humanized hIgG1) VH: QVQLVQSGAEVKKPGASVKVSCKASGYTFPSYITHWVRQAPGQGLEWMGAIYPGNADTSYIQKFKGRVTMTRDTSTSTVYMELSSLRSEDTAVYYCARGTYGTSAWFTYWGQGTLVTVSS VL: EIVMTQSPATLSVSPGERATLSCRARQNIGNNLYWYQQKPGQSPRLLIKYASQSISGIPARFSGSGSGTEFTLTISSLQSEDFAVYFCQQSFSWPLTFGQGTKLEIK ?
Data returned: 29700
